# Assay: AlamarBlue cytotoxicity, HEK 293 T cells
# Type: cell-based
# Study conditions: human
Endpoint name: IC50 at 48 h (µM)
Numbers only; they are read as µM.

Fill blank: measured IC50 at 48 h of the compound CC1(C)C2CCC1(C)C(OC(=O)C=Cc1ccccc1)C2 (single isomer, unassigned; (-)) [Compound 1, (-)-Bornyl cinnamate] is ____.
83.1

---

# Assay: AlamarBlue cytotoxicity, HepG2 cells
# Assay type: cell-based
# Study conditions: human, read-out: Cytotoxicity (μM) HEP G2
Below, each entry is listed alongside its reported IC50 at 72 h.

Fill blank: measured IC50 at 72 h of the compound CC1(C)C2CCC1(C)C(OC(=O)C=Cc1ccccc1)C2 (single isomer, unassigned; (-)) [Compound 1, (-)-Bornyl cinnamate] is ____.
> 100 µM

Next up:
Fill blank: measured IC50 at 72 h of the compound CC1(C)C2CCC1(C)C(OC(=O)CCc1ccccc1)C2 (single isomer, unassigned; (-)) [Compound 2, (-)-bornyl 3-phenylpropionate] is ____.
> 100 µM

---

Below, each entry is listed alongside its reported IC50 at 48 h.
# Assay: AlamarBlue cytotoxicity, BMDM
# Assay type: cell-based
# Study conditions: bone marrow-derived macrophages (BMDM)

Worked examples follow.
Fill blank: measured IC50 at 48 h of the compound CCCCCCCCCCCCCCCCOP(=O)([O-])OCC[N+](C)(C)C [Miltefosine, 1-hexadecylphorylcholine, reference compound] is ____.
65.5 µM

Fill blank: measured IC50 at 48 h of the compound CC1(C)C2CCC1(C)C(OC(=O)CCc1ccccc1)C2 (single isomer, unassigned; (-)) [Compound 2, (-)-bornyl 3-phenylpropionate] is ____.
> 100 µM

Next up:
Fill blank: measured IC50 at 48 h of the compound CC1(C)C2CCC1(C)C(OC(=O)C=Cc1ccccc1)C2 (single isomer, unassigned; (-)) [Compound 1, (-)-Bornyl cinnamate] is ____.
54.3 µM
